Measured values drawn from patent US20100291106A1 for this set.

STUDY_SYSTEM: cynomolgus complement C3b protein (cynomolgus monkey (Macaca fascicularis))
TEST_DESCRIPTION: cell-based or functional assay
ASSAY_ENDPOINT: MAC Dep (nM), cyno serum, IC50
Answers are plain numbers, in nM.

Input: Give the reported value of MAC Dep (nM), cyno serum, IC50 for this record: MOR09141 Fab (Fab, V domains shown, also called Fab 9141) VH: QVQLVQSGAEVKKPGSSVKVSCKASGGTFSSYTFSWVRQAPGQGLEWMGNILPIFGDANYAQKFQGRVTITADESTSTAYMELSSLRSEDTAVYYCARNKGAFYYMSTYPSLDVWGQGTLVTVSS VL: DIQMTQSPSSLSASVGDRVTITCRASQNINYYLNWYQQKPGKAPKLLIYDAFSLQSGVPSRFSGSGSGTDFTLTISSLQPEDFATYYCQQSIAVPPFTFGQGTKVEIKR
Output: 2
